Test system: HCT-116
Assay Details: Antiproliferative activity against human HCT-116 cells assessed as inhibition of cell proliferation incubated for 72 hrs by MTT assay
Assay type: functional, cell-based
Condition Label: HCT-116, 72 h
Observation Type: pIC50
Keep it numeric: pIC50 is minus log10 of the concentration in mol/L.

Quote pIC50 reported for "CC(C)[C@]12O[C@H]1[C@@H]1O[C@]13[C@]1(O[C@H]1C[C@H]1C4=C(CC[C@@]13C)C(=S)OC4)[C@@H]2O" please.
6.40

Quote pIC50 reported for CC(C)[C@]12O[C@H]1[C@@H]1O[C@@]13[C@@]1(C)CCC4=C(COC4=O)[C@@H]1C[C@@H]1O[C@@]13C2=O [TRIPTONIDE] please.
6.89

Quote pIC50 reported for "CC(C)[C@]12O[C@H]1[C@@H]1O[C@]13[C@]1(O[C@H]1C[C@H]1C4=C(CC[C@@]13C)C(=S)O[C@H]4O)[C@@H]2O" please.
5.25

Quote pIC50 reported for "CC(C)[C@]12O[C@H]1[C@@H]1O[C@@]13[C@@]1(C)CCC4=C([C@H](O)OC4=S)[C@@H]1C[C@@H]1O[C@@]13C2=O" please.
5.07

* * *

Assay Details: Acute toxicity in male ICR mouse assessed as lethal dose administered as ip
Condition Label: in vivo
Observation Type: LD50

Quote LD50 reported for "CC(C)[C@]12O[C@H]1[C@@H]1O[C@]13[C@]1(O[C@H]1C[C@H]1C4=C(CC[C@@]13C)C(=S)OC4)[C@@H]2O" please.
> 1000 mg/kg

* * *

Can you tell me selectivity ratio for the items I'm about to list?
Assay Details: Selectivity index, ratio of IC50 for antiproliferative activity against human LO2 cells to IC50 for antiproliferative activity against human HGC-27 cells
Format: toxicity, cell-based
Condition Label: LO2 cells and HGC-27 cells, read-out: Ratio IC50
The answer should be a number; do not append a unit.

Quote selectivity ratio reported for CC(C)[C@]12O[C@H]1[C@@H]1O[C@]13[C@]1(O[C@H]1C[C@H]1C4=C(CC[C@@]13C)C(=O)OC4)[C@@H]2O [TRIPTOLIDE] please.
1.89

Quote selectivity ratio reported for "CC(C)[C@]12O[C@H]1[C@@H]1O[C@@]13[C@@]1(C)CCC4=C(COC4=S)[C@@H]1C[C@@H]1O[C@@]13C2=O" please.
5.43

Quote selectivity ratio reported for "CC(C)[C@]12O[C@H]1[C@@H]1O[C@]13[C@]1(O[C@H]1C[C@H]1C4=C(CC[C@@]13C)C(=S)OC4)[C@@H]2O" please.
6.56

Quote selectivity ratio reported for "CC(C)[C@]12O[C@H]1[C@@H]1O[C@]13[C@]1(O[C@H]1C[C@H]1C4=C(CC[C@@]13C)C(=S)OC4)[C@H]2O" please.
12.2

* * *

Test system: HCT-116
Assay Details: Antiproliferative activity against human HCT-116 cells assessed as inhibition of cell proliferation incubated for 72 hrs by MTT assay
Type: functional, cell-based
Condition Label: HCT-116, 72 h
Observation Type: IC50 (nM)
Please state the figure in nM; there is no need to write the unit.

Quote IC50 reported for "CC(C)[C@]12O[C@H]1[C@@H]1O[C@@]13[C@@]1(C)CCC4=C(COC4=S)[C@@H]1C[C@@H]1O[C@@]13C2=O" please.
520

Quote IC50 reported for CC(C)[C@]12O[C@H]1[C@@H]1O[C@]13[C@]1(O[C@H]1C[C@H]1C4=C(CC[C@@]13C)C(=O)OC4)[C@@H]2O [TRIPTOLIDE] please.
10

Quote IC50 reported for "CC(C)[C@]12O[C@H]1[C@@H]1O[C@]13[C@]1(O[C@H]1C[C@H]1C4=C(CC[C@@]13C)C(=S)OC4)[C@H]2O" please.
1340
